// data source = PubChem BioAssay AID1919017

Test system: SW1271 complex spheroids with HUVEC/MSC, growth, % test/control
Experiment: Anticancer human tumor SW1271 cell line growth inhibition [AhR];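 also: spheroids exposed to agents for 7 days before readout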
Run parameters: second compound 0.316 µM; first compound 10 µM; active compounds read low
Description: Multicellular complex tumor spheroid response to aryl hydrocarbon receptor antagonists in combination with a variety of drugs and investigational agents in selected tumor cell lines […] Compounds. […] If the clinical Cmax for an agent had not been determined, the highest concentration tested was 10 microM (Table 1). […]
Lab note: anything with viability, T/C below 50% is marked class 1; values at 50% or higher are marked class 0.

Query string: Please state whether viability, T/C is below 50% for O=C(C=Cc1cccc(S(=O)(=O)Nc2ccccc2)c1)NO + CC(CO)NC(=O)c1cc(-c2ccc(Cl)cc2)nn(-c2cnn(C)c2)c1=O
Result string: class 1

Query string: Next record, please: CC1COCCN1c1cc(C2(S(C)(=N)=O)CC2)nc(-c2ccnc3[nH]ccc23)n1 (stereo not given) + Cc1cncc(-c2nc(NCCc3c[nH]c4ccccc34)c3ncn(C(C)C)c3n2)c1
Result string: class 0

Query string: And then CC(C)c1c(-c2ccccc2)nc2c(C#N)c[nH]n2c1=O + Cc1cncc(-c2nc(NCCc3c[nH]c4ccccc34)c3ncn(C(C)C)c3n2)c1 , what is it?
Result string: class 0

Query string: Then NS(=O)(=O)OCC1CC(n2ccc3c(NC4CCc5ccccc54)ncnc32)CC1O (stereo not given) + Cc1ccccc1N=Nc1ccc(NC(=O)c2ccnn2C)c(C)c1 ?
Result string: class 0

Query string: Would you mind doing COc1ccc([C@@H](O)c2cc(-c3ncnc4cc(N5CCOCC5)ccc34)c(F)cc2Cl)nn1 + Cc1ccccc1N=Nc1ccc(NC(=O)c2ccnn2C)c(C)c1 as well?
Result string: class 1

Query string: Note, next up: COc1cccc2c1C(=O)c1c(O)c3c(c(O)c1C2=O)CC(O)(C(=O)CO)CC3OC1CC(N)C(O)C(C)O1 (stereo not given) + Cc1cncc(-c2nc(NCCc3c[nH]c4ccccc34)c3ncn(C(C)C)c3n2)c1
Result string: class 1

Query string: Let us now turn to O=C(C=Cc1cccc(S(=O)(=O)Nc2ccccc2)c1)NO + Cc1ccccc1N=Nc1ccc(NC(=O)c2ccnn2C)c(C)c1
Result string: class 1

Query string: Moving on to the next compound: COc1cc(C2c3cc4c(cc3C(OC3OC5COC(C)OC5C(O)C3O)C3COC(=O)C23)OCO4)cc(OC)c1O (stereo not given) + CC(CO)NC(=O)c1cc(-c2ccc(Cl)cc2)nn(-c2cnn(C)c2)c1=O
Result string: class 1

Query string: Same for Nc1ccccc1NC(=O)c1ccc(CNC(=O)OCc2cccnc2)cc1 + Cc1cncc(-c2nc(NCCc3c[nH]c4ccccc34)c3ncn(C(C)C)c3n2)c1
Result string: class 1

Query string: And for O=C(c1cc(Cc2n[nH]c(=O)c3ccccc23)ccc1F)N1CCN(C(=O)C2CC2)CC1 + Cc1ccccc1N=Nc1ccc(NC(=O)c2ccnn2C)c(C)c1 ?
Result string: class 0

###

System: SW1271 complex spheroids with HUVEC/MSC, growth, % test/control
Experiment: Anticancer human tumor SW1271 cell line growth inhibition [AhR];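 also: spheroids exposed to agents for 7 days before readout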
Run parameters: second compound 0.1 µM; first compound 10 µM; active compounds read low
Recorded metric: viability, T/C (%)
Reply with just the number (in %).

Query string: What value of measured viability, T/C is listed for COc1cccc2c1C(=O)c1c(O)c3c(c(O)c1C2=O)CC(O)(C(=O)CO)CC3OC1CC(N)C(O)C(C)O1 (stereo unspecified) + CC(CO)NC(=O)c1cc(-c2ccc(Cl)cc2)nn(-c2cnn(C)c2)c1=O ?
Result string: 3.58

Query string: // repeat for CC(C)c1c(-c2ccccc2)nc2c(C#N)c[nH]n2c1=O + Cc1cncc(-c2nc(NCCc3c[nH]c4ccccc34)c3ncn(C(C)C)c3n2)c1 and report
Result string: 108

Query string: Also need Nc1ccccc1NC(=O)c1ccc(CNC(=O)OCc2cccnc2)cc1 + Cc1cncc(-c2nc(NCCc3c[nH]c4ccccc34)c3ncn(C(C)C)c3n2)c1 , thanks.
Result string: 15.8

Query string: Also need COc1cccc2c1C(=O)c1c(O)c3c(c(O)c1C2=O)CC(O)(C(=O)CO)CC3OC1CC(N)C(O)C(C)O1 (stereo unspecified) + Cc1cncc(-c2nc(NCCc3c[nH]c4ccccc34)c3ncn(C(C)C)c3n2)c1 , thanks.
Result string: 5.75

Query string: Next: O=C(c1cc(Cc2n[nH]c(=O)c3ccccc23)ccc1F)N1CCN(C(=O)C2CC2)CC1 + Cc1cncc(-c2nc(NCCc3c[nH]c4ccccc34)c3ncn(C(C)C)c3n2)c1
Result string: 100

Query string: Field entry: COc1ccc([C@@H](O)c2cc(-c3ncnc4cc(N5CCOCC5)ccc34)c(F)cc2Cl)nn1 + Cc1ccccc1N=Nc1ccc(NC(=O)c2ccnn2C)c(C)c1
Result string: 33.9
